system: Thioredoxin-dependent peroxide reductase, mitochondrial (PRDX3_HUMAN); assay: LC–MS proteome analysis, PRDX3; format: cell-based, Homo sapiens; conditions: SW480, 24 h, IC50 concentration, % of control
Examples of molecules with documented Protein Intensity, % (PRDX3) follow.

>  <smiles-record>
O=[N+]([O-])c1cc([N+]2=C(Nc3ccccc3Br)[S][Cu-2]23[S]C(Nc2ccccc2Br)=[N+]3c2ccc(Cl)c([N+](=O)[O-])c2)ccc1Cl

>  <Protein Intensity, % (PRDX3)>
95.2%

$$$$
>  <smiles-record>
O=[N+]([O-])c1cc([N+]2=C(Nc3ccc(Br)cc3)[S][Cu-2]23[S]C(Nc2ccc(Br)cc2)=[N+]3c2ccc(Cl)c([N+](=O)[O-])c2)ccc1Cl

>  <Protein Intensity, % (PRDX3)>
85.4%

$$$$
>  <smiles-record>
O=[N+]([O-])c1cc([N+]2=C(Nc3ccc(I)cc3)[S][Cu-2]23[S]C(Nc2ccc(I)cc2)=[N+]3c2ccc(Cl)c([N+](=O)[O-])c2)ccc1Cl

>  <Protein Intensity, % (PRDX3)>
96.3%

$$$$
>  <smiles-record>
O=[N+]([O-])c1cc([N+]2=C(Nc3ccccc3F)[S][Cu-2]23[S]C(Nc2ccccc2F)=[N+]3c2ccc(Cl)c([N+](=O)[O-])c2)ccc1Cl

>  <Protein Intensity, % (PRDX3)>
90.4%

$$$$
